- TARGET: dopaminergic receptors D2 (Homo sapiens, UniProt P14416)
- Sequence (P14416 whole entry): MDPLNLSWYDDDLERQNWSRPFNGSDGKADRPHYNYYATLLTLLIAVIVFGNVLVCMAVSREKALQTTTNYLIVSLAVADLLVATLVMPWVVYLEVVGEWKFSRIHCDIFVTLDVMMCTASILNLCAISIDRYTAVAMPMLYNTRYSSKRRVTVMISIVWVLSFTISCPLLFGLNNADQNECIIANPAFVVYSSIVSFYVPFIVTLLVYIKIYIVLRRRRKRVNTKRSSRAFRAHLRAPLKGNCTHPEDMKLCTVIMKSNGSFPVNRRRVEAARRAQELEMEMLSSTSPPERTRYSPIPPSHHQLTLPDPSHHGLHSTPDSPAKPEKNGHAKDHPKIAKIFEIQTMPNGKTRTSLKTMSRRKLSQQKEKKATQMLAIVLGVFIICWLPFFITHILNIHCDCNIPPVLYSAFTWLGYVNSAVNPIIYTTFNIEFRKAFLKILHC
- EXPERIMENT: Radioligand binding assay, dopaminergic D2 receptors
- MEASUREMENT CONDITIONS: binding assay, test compound 1×10^−6 M
So basically: is D2 [%] under 50%? Then true (1). Not under? Then false (0).

Strictly below 50%: is that where D2 [%] of `O=S(=O)(NC1CN(CCOc2cccc3c2OCCO3)C1)c1ccccc1` sits?
true (1)

Strictly below 50%: is that where D2 [%] of O=S(=O)(NC1CCN(CCOc2cccc3c2OCCO3)C1)c1ccccc1 (stereo not drawn) sits?
true (1)

Strictly below 50%: is that where D2 [%] of `O=S(=O)(NCC1CCN(CCOc2cccc3[nH]ccc23)CC1)c1ccc2ccccc2c1` sits?
false (0)

Strictly below 50%: is that where D2 [%] of `O=S(=O)(NCC1CCN(CCCc2noc3cc(F)ccc23)CC1)c1ccc2ccccc2c1` sits?
false (0)

Strictly below 50%: is that where D2 [%] of `O=S(=O)(NC1CCN(CCCc2noc3cc(F)ccc23)CC1)c1ccccc1` sits?
false (0)
